Test system: primary cultured rat hepatocytes
Assay: Cytotoxicity assay in primary cultured rat hepatocytes (neutral red)
Conditions: primary rat hepatocytes, 24 h, neutral red, 25% toxic concentration
MEASUREMENT LABEL: Cytotoxicity in hepatocyte (TC25 uM) (µM)
Could you give me the number in µM? Just the number is fine.

Briefly, Cytotoxicity in hepatocyte (TC25 uM) measured for COc1ccc(Oc2ccnc(N(C)CCOc3ccc(CC4SC(=O)NC4=O)cc3)c2)cc1 (stereo not shown) [Ex. 35] : 96

Briefly, Cytotoxicity in hepatocyte (TC25 uM) measured for CN(CCOc1ccc(CC2SC(=O)NC2=O)cc1)c1cc(Oc2ccc(F)cc2)ncn1 (stereo not shown) [Ex. 23] : 71

Briefly, Cytotoxicity in hepatocyte (TC25 uM) measured for CN(CCOc1ccc(C=C2SC(=O)NC2=O)cc1)c1cc(Oc2ccc(-c3ccccc3)cc2)ncn1 [Ex. 12] : 85

Briefly, Cytotoxicity in hepatocyte (TC25 uM) measured for CCc1ccc(Oc2cc(N(C)CCOc3ccc(C=C4SC(=O)NC4=O)cc3)ncn2)cc1 [Ex. 9] : 90

Briefly, Cytotoxicity in hepatocyte (TC25 uM) measured for CN(CCOc1ccc(CC2SC(=O)NC2=O)cc1)c1ccccn1 (stereo not shown) [Rosiglitazone, reference compound] : 70

Briefly, Cytotoxicity in hepatocyte (TC25 uM) measured for CCOc1ccc(Oc2cc(N(C)CCOc3ccc(CC4SC(=O)NC4=O)cc3)ncn2)cc1 (stereo not shown) [Ex. 26] : 95

Briefly, Cytotoxicity in hepatocyte (TC25 uM) measured for CN(CCOc1ccc(CC2SC(=O)NC2=O)cc1)c1cc(Oc2ccccc2)ccn1 (stereo not shown) [Ex. 22] : 74

Briefly, Cytotoxicity in hepatocyte (TC25 uM) measured for CN(CCOc1ccc(C=C2SC(=O)NC2=O)cc1)c1cc(Oc2ccc(Cl)cc2)ncn1 [Ex. 5] : 93

Briefly, Cytotoxicity in hepatocyte (TC25 uM) measured for CN(CCOc1ccc(CC2SC(=O)NC2=O)cc1)c1cc(Oc2ccccc2)ncn1 (stereo not shown) [Ex. 20] : 80

Briefly, Cytotoxicity in hepatocyte (TC25 uM) measured for CN(CCOc1ccc(C=C2SC(=O)NC2=O)cc1)c1cc(Oc2ccccc2)ncn1 [Ex. 1] : 98

Briefly, Cytotoxicity in hepatocyte (TC25 uM) measured for CN(CCOc1ccc(CC2SC(=O)NC2=O)cc1)c1cc(Oc2ccc(-c3ccccc3)cc2)ncn1 (stereo not shown) [Ex. 31] : 73

Briefly, Cytotoxicity in hepatocyte (TC25 uM) measured for CC(C)c1ccc(Oc2cc(N(C)CCOc3ccc(CC4SC(=O)NC4=O)cc3)ncn2)cc1 (stereo not shown) [Ex. 30] : 72

Briefly, Cytotoxicity in hepatocyte (TC25 uM) measured for CCc1ccc(Oc2cc(N(C)CCOc3ccc(CC4SC(=O)NC4=O)cc3)ncn2)cc1 (stereo not shown) [Ex. 28] : 85

Briefly, Cytotoxicity in hepatocyte (TC25 uM) measured for CN(CCOc1ccc(CC2SC(=O)NC2=O)cc1)c1cc(Oc2ccc(Cl)cc2)ncn1 (stereo not shown) [Ex. 24] : 75

Briefly, Cytotoxicity in hepatocyte (TC25 uM) measured for CC(C)Oc1ccc(Oc2cc(N(C)CCOc3ccc(CC4SC(=O)NC4=O)cc3)ncn2)cc1 (stereo not shown) [Ex. 27] : 78

Briefly, Cytotoxicity in hepatocyte (TC25 uM) measured for COc1ccc(Oc2cc(N(C)CCOc3ccc(CC4SC(=O)NC4=O)cc3)ncn2)cc1 (stereo not shown) [Ex. 25] : 80

* * *

Tested on: primary cultured rat hepatocytes
Experiment: Cytotoxicity assay in primary cultured rat hepatocytes (neutral red)
Details: TC25 in hepatocyte cytotoxicity assay / EC50 in triglyceride accumulation assay
Label true when Safety index (TC25 nM/EC50 nM) < 10000; otherwise false.

Exam item: Is Safety index (TC25 nM/EC50 nM) of COc1ccc(Oc2cc(N(C)CCOc3ccc(CC4SC(=O)NC4=O)cc3)ncn2)cc1 (centres unmarked) [Ex. 25] strictly below 10000?
Marked response: false

Exam item: Is Safety index (TC25 nM/EC50 nM) of CCOc1ccc(Oc2cc(N(C)CCOc3ccc(CC4SC(=O)NC4=O)cc3)ncn2)cc1 (centres unmarked) [Ex. 26] strictly below 10000?
Marked response: false

Exam item: Is Safety index (TC25 nM/EC50 nM) of CN(CCOc1ccc(C=C2SC(=O)NC2=O)cc1)c1cc(Oc2ccc(-c3ccccc3)cc2)ncn1 [Ex. 12] strictly below 10000?
Marked response: true

Exam item: Is Safety index (TC25 nM/EC50 nM) of CN(CCOc1ccc(C=C2SC(=O)NC2=O)cc1)c1cc(Oc2ccccc2)ncn1 [Ex. 1] strictly below 10000?
Marked response: true

Exam item: Is Safety index (TC25 nM/EC50 nM) of CC(C)c1ccc(Oc2cc(N(C)CCOc3ccc(CC4SC(=O)NC4=O)cc3)ncn2)cc1 (centres unmarked) [Ex. 30] strictly below 10000?
Marked response: false

Exam item: Is Safety index (TC25 nM/EC50 nM) of CN(CCOc1ccc(CC2SC(=O)NC2=O)cc1)c1cc(Oc2ccc(F)cc2)ncn1 (centres unmarked) [Ex. 23] strictly below 10000?
Marked response: false

Exam item: Is Safety index (TC25 nM/EC50 nM) of CN(CCOc1ccc(CC2SC(=O)NC2=O)cc1)c1cc(Oc2ccccc2)ncn1 (centres unmarked) [Ex. 20] strictly below 10000?
Marked response: false

* * *

Kindly supply the reported EC50 values for the records listed here.
Tested on: differentiated 3T3-L1 cell
Assay: 2-Deoxy-D-[2,6-3H] glucose uptake assay
Type: cell-based
Conditions: differentiated 3T3-L1 cells, 24 h with compound, 0.5 nM insulin; concentration giving 50% of maximum enhancement of insulin activation; read-out: 2-deoxyglucose uptake (EC50 nM)
Could you give me the number in nM? Just the number is fine.

Briefly, EC50 measured for CN(CCOc1ccc(CC2SC(=O)NC2=O)cc1)c1cc(Oc2ccccc2)ccn1 (stereo not drawn) : 1.8

Briefly, EC50 measured for CN(CCOc1ccc(C=C2SC(=O)NC2=O)cc1)c1cc(Oc2ccc(-c3ccccc3)cc2)ncn1 : 49.5

Briefly, EC50 measured for CCc1ccc(Oc2cc(N(C)CCOc3ccc(C=C4SC(=O)NC4=O)cc3)ncn2)cc1 : 55.2

Briefly, EC50 measured for CN(CCOc1ccc(C=C2SC(=O)NC2=O)cc1)c1cc(Oc2ccccc2)ncn1 : 58

Briefly, EC50 measured for COc1ccc(Oc2ccnc(N(C)CCOc3ccc(CC4SC(=O)NC4=O)cc3)c2)cc1 (stereo not drawn) : 19.3

Briefly, EC50 measured for CC(C)Oc1ccc(Oc2cc(N(C)CCOc3ccc(CC4SC(=O)NC4=O)cc3)ncn2)cc1 (stereo not drawn) : 35.5

Briefly, EC50 measured for CCc1ccc(Oc2cc(N(C)CCOc3ccc(CC4SC(=O)NC4=O)cc3)ncn2)cc1 (stereo not drawn) : 5.2

Briefly, EC50 measured for CN(CCOc1ccc(CC2SC(=O)NC2=O)cc1)c1cc(Oc2ccc(Cl)cc2)ncn1 (stereo not drawn) : 0.2

Briefly, EC50 measured for CN(CCOc1ccc(CC2SC(=O)NC2=O)cc1)c1cc(Oc2ccc(F)cc2)ncn1 (stereo not drawn) : 2.4

Briefly, EC50 measured for CN(CCOc1ccc(C=C2SC(=O)NC2=O)cc1)c1cc(Oc2ccc(Cl)cc2)ncn1 : 45

Briefly, EC50 measured for CN(CCOc1ccc(CC2SC(=O)NC2=O)cc1)c1cc(Oc2ccc(-c3ccccc3)cc2)ncn1 (stereo not drawn) : 20.5

Briefly, EC50 measured for COc1ccc(Oc2cc(N(C)CCOc3ccc(CC4SC(=O)NC4=O)cc3)ncn2)cc1 (stereo not drawn) : 0.2

Briefly, EC50 measured for CN(CCOc1ccc(CC2SC(=O)NC2=O)cc1)c1cc(Oc2ccccc2)ncn1 (stereo not drawn) : 7.5

Briefly, EC50 measured for CCOc1ccc(Oc2cc(N(C)CCOc3ccc(CC4SC(=O)NC4=O)cc3)ncn2)cc1 (stereo not drawn) : 14.4

Briefly, EC50 measured for CC(C)c1ccc(Oc2cc(N(C)CCOc3ccc(CC4SC(=O)NC4=O)cc3)ncn2)cc1 (stereo not drawn) : 13.3

* * *

Kindly supply the reported Safety index (TC25 nM/EC50 nM) values for the records listed here.
Tested on: primary cultured rat hepatocytes
Assay: Cytotoxicity assay in primary cultured rat hepatocytes (neutral red)
Conditions: TC25 in hepatocyte cytotoxicity assay / EC50 in triglyceride accumulation assay
Answer with the value's number alone.

Measured Safety index (TC25 nM/EC50 nM) for this entry CN(CCOc1ccc(C=C2SC(=O)NC2=O)cc1)c1cc(Oc2ccc(Cl)cc2)ncn1 on primary cultured rat hepatocytes: 2657

Measured Safety index (TC25 nM/EC50 nM) for this entry CN(CCOc1ccc(CC2SC(=O)NC2=O)cc1)c1cc(Oc2ccccc2)ccn1 (stereo not shown) on primary cultured rat hepatocytes: 137037

Measured Safety index (TC25 nM/EC50 nM) for this entry CN(CCOc1ccc(CC2SC(=O)NC2=O)cc1)c1cc(Oc2ccc(Cl)cc2)ncn1 (stereo not shown) on primary cultured rat hepatocytes: 750000

Measured Safety index (TC25 nM/EC50 nM) for this entry CN(CCOc1ccc(CC2SC(=O)NC2=O)cc1)c1cc(Oc2ccc(-c3ccccc3)cc2)ncn1 (stereo not shown) on primary cultured rat hepatocytes: 5840
